test system: SW-620 colon; assay: NCI-60 one-dose screen, 48 h (100 = growth as untreated, 0 = no growth, -100 = all killed); conditions: 10 µM unless noted
Compounds without any hit were thinned out: in the full panel of roughly 83,000, 20% have a hit.
observable: growth (%)
Quick note: give the figure in %, leave out the unit.

I would be grateful if you could share the reported growth for COc1cc2cc(Oc3ccc(NC(=O)Nc4ccc(F)c(C(F)(F)F)c4)cc3)c(C)nc2cc1OCCN1CCOCC1 .
15.5

I would be grateful if you could share the reported growth for CCOC(=O)c1c(C)nc2c(c1N)CC(=O)N2Cc1ccc(F)cc1 .
92.2

I would be grateful if you could share the reported growth for CC(=O)O.CN1[CH-]N(Cc2ccc(C#N)cc2)c2ccccc21.[Ag+] .
57.9

I would be grateful if you could share the reported growth for NS(=O)(=O)c1ccc(-n2nc(C(=O)N/N=C\c3ccc(F)cc3)cc2-c2ccc(Br)cc2)cc1 .
62.8

I would be grateful if you could share the reported growth for O=C(N/N=C/[C@H](O)[C@@H](O)[C@@H](O)[C@H](O)CO)c1ccc(NC(=O)c2cccnc2)cc1 .
108

I would be grateful if you could share the reported growth for O=C(N/N=C/[C@H](O)[C@H](O)[C@H](O)CO)c1ccc(NC(=O)c2cccnc2)cc1 .
103

I would be grateful if you could share the reported growth for CNc1nc2c(s1)C(c1cccc(F)c1)CC(=O)N2 (centres undefined) .
102

I would be grateful if you could share the reported growth for CCC12CCC[N+]3([O-])CCC4(C(=Nc5ccccc54)C(O)(C(=O)OC)C1)C23 (centres undefined) .
95.4

I would be grateful if you could share the reported growth for CC1Cc2ccccc2N1NC(=O)c1ccc(Cl)c(S(N)(=O)=O)c1 (centres undefined) .
105

----------
Record form. Attribute: growth. Fill in for each entry.
tested on: HS 578T breast; assay: NCI-60 one-dose screen, 48 h (100 = growth as untreated, 0 = no growth, -100 = all killed); conditions: 10 µM unless noted
About 83,000 compounds went through this panel and 20% of them were active in at least one assay; those are over-represented in the sample as a whole. The source made the active and inactive calls. Rule for the calls: active = growth percent below 10; inactive = the rest.

I would be grateful if you could share the reported growth for C=C1C(=O)O[C@H]2[C@H]1CC/C(COC(=O)NCCOCCOCC(=O)Nc1ccc(OC)c(C(N)=O)c1O)=C\CC[C@@]1(C)O[C@@H]21 .
90.1% (inactive)

I would be grateful if you could share the reported growth for CCOC(=O)c1c2c(n(-c3ccc(C#N)cc3)c1-c1ccccc1)C=CCC2 .
99.3% (inactive)

I would be grateful if you could share the reported growth for Cc1c(C(=O)NCCN2CCOCC2)cn2ncnc(Oc3ccc(NC(=O)Nc4ccc(Cl)c(C(F)(F)F)c4)cc3)c12 .
-23.8% (active)

I would be grateful if you could share the reported growth for CCCCCCNC(=O)Oc1ccc(/C(=C(\C)c2ccc(Cl)cc2)c2ccc(OCCN3CCCCC3)cc2)cc1 .
65.2% (inactive)

I would be grateful if you could share the reported growth for COc1ccc(-c2cnc3ccccc3n2)cc1 .
89.4% (inactive)

----------
tested on: HS 578T breast; experiment: NCI-60 one-dose screen, 48 h (100 = growth as untreated, 0 = no growth, -100 = all killed); settings: 10 µM unless noted
About 83,000 compounds went through this panel and 20% of them were active in at least one assay; those are over-represented in the sample as a whole.
observable: growth (%)
Quick note: give the figure in %, leave out the unit.

I would be grateful if you could share the reported growth for COc1ccc(C2CC(c3ccc(Nc4ccnc5cc(Cl)ccc45)cc3)=NN2C=O)cc1 (stereo not given) .
68.8

I would be grateful if you could share the reported growth for C/C(=N/NC(N)=S)c1sc(Nc2cccc(Cl)c2)nc1C .
88.2

I would be grateful if you could share the reported growth for C/C=C(\C)C(=O)N[C@H]1[C@@H](OC(C)=O)C[C@]2(C)C3CC[C@@]4(C)C(CC[C@@H]4C(C)N(C)C)C3CCC2[C@H]1O (stereo not given in full) .
88.6

I would be grateful if you could share the reported growth for S=c1nc(-c2ccccc2)oc(=NC2CCCCC2)n1C1CCCCC1 .
43.1

I would be grateful if you could share the reported growth for CCOc1cccc(NC2=C(Br)C(=O)C(C)=C(C)C2=O)c1 .
91.2

Recorded values, source PubChem BioAssay (NCI).
